- tested-target: hKDR (Homo sapiens, UniProt P35968)
- Construct: purchased Cerep (LANCE kinase assay platform, contract assay)
- Sequence (P35968 20-1356): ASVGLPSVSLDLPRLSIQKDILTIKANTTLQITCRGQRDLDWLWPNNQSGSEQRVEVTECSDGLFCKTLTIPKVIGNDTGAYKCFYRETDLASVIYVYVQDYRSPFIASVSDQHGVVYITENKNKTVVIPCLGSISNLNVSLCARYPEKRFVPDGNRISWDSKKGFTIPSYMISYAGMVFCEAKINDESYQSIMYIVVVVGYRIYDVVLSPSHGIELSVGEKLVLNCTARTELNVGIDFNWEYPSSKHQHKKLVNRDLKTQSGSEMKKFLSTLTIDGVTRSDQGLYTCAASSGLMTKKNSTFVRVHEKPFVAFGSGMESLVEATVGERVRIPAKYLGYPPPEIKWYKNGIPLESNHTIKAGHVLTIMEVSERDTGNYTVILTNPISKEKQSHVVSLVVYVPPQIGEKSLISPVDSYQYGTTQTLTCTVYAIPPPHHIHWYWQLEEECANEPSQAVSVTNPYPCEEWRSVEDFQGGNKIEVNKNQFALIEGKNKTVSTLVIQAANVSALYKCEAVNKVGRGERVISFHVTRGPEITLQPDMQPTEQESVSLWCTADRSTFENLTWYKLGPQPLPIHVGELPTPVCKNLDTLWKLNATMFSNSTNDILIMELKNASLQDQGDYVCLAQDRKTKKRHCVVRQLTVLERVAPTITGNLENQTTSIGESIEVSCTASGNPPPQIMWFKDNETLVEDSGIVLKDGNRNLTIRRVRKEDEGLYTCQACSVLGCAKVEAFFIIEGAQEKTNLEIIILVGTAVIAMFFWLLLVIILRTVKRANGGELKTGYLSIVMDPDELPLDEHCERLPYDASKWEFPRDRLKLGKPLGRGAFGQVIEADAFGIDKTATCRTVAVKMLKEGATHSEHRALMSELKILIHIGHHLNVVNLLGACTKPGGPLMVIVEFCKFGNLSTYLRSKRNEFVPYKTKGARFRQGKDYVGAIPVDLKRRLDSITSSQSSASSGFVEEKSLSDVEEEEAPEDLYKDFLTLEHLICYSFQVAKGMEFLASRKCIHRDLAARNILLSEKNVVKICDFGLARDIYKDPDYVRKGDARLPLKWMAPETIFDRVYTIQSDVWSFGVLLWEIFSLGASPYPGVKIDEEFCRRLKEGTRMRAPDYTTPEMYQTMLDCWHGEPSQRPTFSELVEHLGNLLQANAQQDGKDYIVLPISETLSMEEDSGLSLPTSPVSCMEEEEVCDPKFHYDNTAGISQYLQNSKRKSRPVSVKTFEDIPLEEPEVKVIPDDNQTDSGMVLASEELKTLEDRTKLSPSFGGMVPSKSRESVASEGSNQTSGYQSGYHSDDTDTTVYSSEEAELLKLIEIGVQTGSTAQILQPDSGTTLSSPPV
- test-protocol: Cerep LANCE kinase assay hKDR (S1 assay 32)
- Assay type: biochemical
- measurement-setup: read-out: KDR
Below, each entry is listed with its recorded IC50.

# count of solved cases: 2
compound | IC50
C=C(C)[C@H]1Cc2c(ccc3c2O[C@@H]2COc4cc(OC)c(OC)cc4[C@@H]2C3=O)O1 [rotenone, reference compound] | > 20 µM
CC[C@@]1(O)C(=O)OCc2c1cc1n(c2=O)Cc2c-1nc1ccccc1c2/C=N/OC(C)(C)C | > 20 µM

Turning to the following compound.
[ask] Item Cc1ccc([N+](=O)[O-])[c]2c1[O][Hg]2 [nitromersol, reference compound] has what recorded IC50?
[reply] 16.8 µM

* * *

- System: RKO
- test-protocol: cells
- Format: cell-based
- measurement-setup: Homo sapiens; basal; RKO; read-out: Basal_Viability ATP RKO
# pIC50 listing for each entry below
pIC50 (log units): -log10 of the concentration in mol/L.

input-smiles | tested-target | measurement-label | recorded-measurement
OC[C@H]1O[C@@H](n2cnc3c(S)ncnc32)[C@H](O)[C@@H]1O | RKO | pIC50 | 7.84
Nc1nc(Cl)nc2c1ncn2[C@@H]1O[C@H](CO)[C@@H](O)[C@@H]1F | RKO | pIC50 | 9.00

Shifting focus to the compound that follows.
[ask] If you can, please state the reported pIC50 value of O=C(Nc1ccc(Br)cc1)c1cc(Br)cc(Br)c1O .
[reply] 8.52

* * *

- System: HT-29
- test-protocol: cells
- Format: cell-based
- measurement-setup: assay number 28
Catalogue of Basal_Viability ATP HT-29 IC50/EC50 readings, one per entry.
Answer with a number only, understood to be in µM.

compound | Basal_Viability ATP HT-29 IC50/EC50 / µM
O=c1c(C2CC(c3ccc(-c4ccc(Br)cc4)cc3)Cc3ccccc32)c(O)sc2ccccc12 (stereo not shown) | 0.4364
COc1ccc(CN2CCN(C(c3ccc(F)cc3)c3ccc(F)cc3)CC2)c(OC)c1OC.Cl.Cl | 2.926
CCCCCCCCCCCCCC[N+](C)(C)C.[Br-] | 1.32
Cl.O=C1[C@H]2CCCC[C@H]2C(=O)N1CCCCN1CCN(c2nsc3ccccc23)CC1 | 2.0058
Cc1ccc2nc(N)[nH]c(=O)c2c1Sc1ccncc1.Cl.Cl | 4.747

[ask] Please report the recorded Basal_Viability ATP HT-29 IC50/EC50 for CC(C)(C)C1CCC(CC2=C(O)c3ccccc3C(=O)C2=O)CC1 (stereo not shown) .
[reply] 3.3906

[ask] And what about the compound Clc1ccc(CCC(Cn2ccnc2)Sc2c(Cl)cccc2Cl)cc1 (stereo not shown) ?
[reply] 3.009

* * *

- Tested on: HeLa cells
- test-protocol: cells
- Type: cell-based
- measurement-setup: assay number 16; 4N
measurement-label: Hela CellCycMod PI 4N IC50/EC50

Consider the reported Hela CellCycMod PI 4N IC50/EC50 for these molecules:
molecule | measurement-label | recorded-measurement
CN1CC[C@H](c2c(O)cc(O)c3c(=O)cc(-c4ccccc4Cl)oc23)[C@H](O)C1.Cl | Hela CellCycMod PI 4N IC50/EC50 | > 10 µM
O=C(O)C[CH2][Ge](=[O])[O][Ge](=[O])[CH2]CC(=O)O | Hela CellCycMod PI 4N IC50/EC50 | > 10 µM
Cc1cc(C2CCCCC2)n(O)c(=O)c1.NCCO | Hela CellCycMod PI 4N IC50/EC50 | > 10 µM
Nc1ccc2cc3ccc(N)cc3nc2c1 | Hela CellCycMod PI 4N IC50/EC50 | > 10 µM
CC[C@H]1CN2CCc3cc(OC)c(OC)cc3[C@@H]2C[C@@H]1C[C@H]1NCCc2cc(OC)c(OC)cc21 | Hela CellCycMod PI 4N IC50/EC50 | > 10 µM

Note: attention shifts to another entry.
[ask] Any idea what Hela CellCycMod PI 4N IC50/EC50 came out for CCCN(CCC)C(=O)C(CCC(=O)OCCCN1CCN(CCOC(=O)Cc2c(C)n(C(=O)c3ccc(Cl)cc3)c3ccc(OC)cc23)CC1)NC(=O)c1ccccc1 (stereo not shown) on HeLa cells?
[reply] > 10 µM

* * *

- Tested on: HeLa cells
- test-protocol: cells
- Type: cell-based
- measurement-setup: assay number 17; MI
measurement-label: Hela CellCycMod PI MI IC50/EC50

compound | Hela CellCycMod PI MI IC50/EC50
Cc1cc2c(C(C)C)c(O)c(O)c(C=O)c2c(O)c1-c1c(C)cc2c(C(C)C)c(O)c(O)c(C=O)c2c1O | > 10 µM
O=c1[nH]c(=O)n([C@H]2C[C@H](O)[C@@H](CO)O2)cc1Br | > 10 µM
C[C@@H]1C[C@@H]([C@H](O)CC2CC(=O)NC(=O)C2)C(=O)[C@@H](C)C1 | > 10 µM
COc1cc(-c2ccc(=O)[nH]n2)ccc1OC(F)F | > 10 µM

[ask] Would you kindly share the measured Hela CellCycMod PI MI IC50/EC50 for CC(=O)[C@]1(O)Cc2c(O)c3c(c(O)c2[C@@H](O[C@H]2C[C@H](N)[C@H](O)[C@H](C)O2)C1)C(=O)c1ccccc1C3=O ?
[reply] 0.6593 µM

[ask] Here is the next compound: O=C(O)c1ccc(-n2nc(-c3ccccc3O)nc2-c2ccccc2O)cc1
[reply] > 10 µM

[ask] C1CN(P2(N3CC3)=NP(N3CC3)(N3CC3)=NP(N3CC3)(N3CC3)=N2)CCO1 (stereo not drawn) , same question.
[reply] > 10 µM

[ask] Okay, and CN1CCC(Nc2ncc3ncnc(Nc4ccc(F)c(Cl)c4)c3n2)CC1 ?
[reply] > 10 µM

[ask] Quick one: COc1c(C)c2c(c(O)c1C/C=C(\C)CCC(=O)OCCN1CCOCC1)C(=O)OC2
[reply] > 10 µM

[ask] Then what about the compound CC(C)(C)C(=O)OCOP(=O)(COCCn1cnc2c(N)ncnc21)OCOC(=O)C(C)(C)C ?
[reply] > 10 µM

* * *

Reported WntCondMedia_Alk Phos C2C12 IC50/EC50 values for the following molecules.
- Test system: alkaline phosphatase (ALP) activity in C2C12 cells
- Format: cell-based
- measurement-setup: assay number 6; concentration response
State the answer as a number, implicitly in µM.

molecule | readout-units | recorded-measurement
Cc1ccccc1C(=O)Nc1ccc(C(=O)N2CCCC(N(C)C)c3ccccc32)cc1 (stereo not drawn) | µM | 9.9815

[ask] Provide the documented WntCondMedia_Alk Phos C2C12 IC50/EC50 with alkaline phosphatase (ALP) activity in C2C12 cells as the system for CC[C@@H]([C@H](C)O)n1ncn(-c2ccc(N3CCN(c4ccc(OC[C@@H]5CO[C@@](Cn6cncn6)(c6ccc(F)cc6F)C5)cc4)CC3)cc2)c1=O
[reply] 1.6342

[ask] How about COC(=O)[C@H]1[C@H]2C[C@@H]3c4[nH]c5cc(OC)ccc5c4CCN3C[C@H]2C[C@@H](OC(=O)/C=C/c2ccc(O)c(OC)c2)[C@@H]1OC ?
[reply] 10.4461

* * *

- System: DLD-1
- test-protocol: cells
- Format: cell-based
- measurement-setup: Homo sapiens, DLD-1, read-out: Basal_Viability ATP DLD-1
measurement-label: IC50
Put down the number, then write its unit next to it.

As a guide, the following entries are already answered.
molecule | IC50
O=c1c(-c2ccccc2)c1-c1ccccc1 | 4.21 µM
COc1cc(NCc2ccc3nc(N)nc(N)c3c2C)cc(OC)c1OC [trimetrexate, reference compound] | 0.195 µM
O=C(O)c1ccc(-n2nc(-c3ccccc3O)nc2-c2ccccc2O)cc1 | 0.651 µM

Now, please, on to the next molecule.
[ask] Entry CC(CC1c2ccccc2CCc2ccccc21)CN(C)C (stereo not shown) [butriptyline, reference compound] has what IC50?
[reply] 8.1 µM

* * *

Reported pIC50 values for the following molecules.
- System: endothelial tube formation in co-cultures of ECFCs and ADSCs treated with VEGF
- test-protocol: cells
- Format: cell-based, human
- measurement-setup: Homo sapiens; read-out: Anti-Angio IC50
The quantity pIC50 is defined as the negative base-10 logarithm of the molar concentration.

molecule | tested-target | pIC50
C=C(C)[C@H]1Cc2c(ccc3c2O[C@@H]2COc4cc(OC)c(OC)cc4[C@@H]2C3=O)O1 [rotenone, reference compound] | endothelial tube formation in co-cultures of ECFCs and ADSCs treated with VEGF | 7.59

[ask] Fill in: pIC50 of Cc1ccc2nc(N)[nH]c(=O)c2c1Sc1ccncc1 [nolatrexed, reference compound] is ___
[reply] 5.13

* * *

# IC50 values compiled below
- tested-target: hFLT3 (Homo sapiens, UniProt P36888)
- Construct: purchased Cerep (LANCE kinase assay platform, contract assay)
- Sequence (P36888 27-993): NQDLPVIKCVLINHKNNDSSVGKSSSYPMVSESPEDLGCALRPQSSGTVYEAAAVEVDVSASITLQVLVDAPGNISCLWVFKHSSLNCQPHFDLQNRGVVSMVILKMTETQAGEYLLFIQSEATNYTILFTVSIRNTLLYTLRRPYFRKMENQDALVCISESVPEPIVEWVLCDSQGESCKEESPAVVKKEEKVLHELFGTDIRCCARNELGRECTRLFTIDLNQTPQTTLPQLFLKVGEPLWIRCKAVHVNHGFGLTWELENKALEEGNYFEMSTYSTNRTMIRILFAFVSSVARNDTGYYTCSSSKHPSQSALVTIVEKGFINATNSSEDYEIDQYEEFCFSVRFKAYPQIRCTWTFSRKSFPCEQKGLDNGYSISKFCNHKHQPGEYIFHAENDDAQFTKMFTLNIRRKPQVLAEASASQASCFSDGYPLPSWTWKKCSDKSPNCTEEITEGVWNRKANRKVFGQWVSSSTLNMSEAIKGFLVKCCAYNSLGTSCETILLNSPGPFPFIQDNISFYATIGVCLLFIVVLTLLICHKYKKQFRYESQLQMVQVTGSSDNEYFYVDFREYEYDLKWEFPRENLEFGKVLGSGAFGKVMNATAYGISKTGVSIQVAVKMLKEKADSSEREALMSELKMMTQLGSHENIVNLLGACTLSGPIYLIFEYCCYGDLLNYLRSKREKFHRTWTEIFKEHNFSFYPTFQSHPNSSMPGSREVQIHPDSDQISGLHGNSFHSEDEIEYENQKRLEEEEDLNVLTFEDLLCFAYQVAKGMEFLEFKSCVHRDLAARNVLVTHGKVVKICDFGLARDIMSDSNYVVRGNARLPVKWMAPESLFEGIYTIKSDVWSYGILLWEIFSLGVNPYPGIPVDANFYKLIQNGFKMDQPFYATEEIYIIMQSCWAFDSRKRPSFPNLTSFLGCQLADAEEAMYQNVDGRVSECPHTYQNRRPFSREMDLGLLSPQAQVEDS
- test-protocol: Cerep LANCE kinase assay hFLT3 (S1 assay 35)
- Format: biochemical

input-smiles | tested-target | IC50
Cn1cnc([N+](=O)[O-])c1Sc1ncnc2nc[nH]c12 | hFLT3 (Homo sapiens, UniProt P36888) | > 20 µM

Now for the compound whose IC50 we want.
[ask] Give IC50 (hFLT3 (Homo sapiens, UniProt P36888)) of the following compound: COc1cc2c(c(OC)c1OC)-c1ccc(OC)c(=O)cc1[C@@H](NC(C)=O)CC2
[reply] > 20 µM
